Measured values drawn from the NIST ThermoML archive (doi:10.1016/j.jct.2018.01.003) for this set.

Assay: activity coefficient (dimensionless); of the first substance listed, at infinite dilution; xn = mol fraction of the nth substance listed
Settings: 328.15 K; 101.33 kPa; Liquid; Chromatography; x1 = 0
metric: activity coefficient

compound	activity coefficient
C=CCCCCCC [oct-1-ene] + CCCCCCCCCCCCCC[P+](CCCCCC)(CCCCCC)CCCCCC.N#CC(=C=[N-])C#N	1.81
CC(C)OC(C)C [diisopropyl ether] + CCCCCCCCCCCCCC[P+](CCCCCC)(CCCCCC)CCCCCC.N#CC(=C=[N-])C#N	1.5
CCOC(C)(C)C [2-ethoxy-2-methylpropane] + CCCCCCCCCCCCCC[P+](CCCCCC)(CCCCCC)CCCCCC.N#CC(=C=[N-])C#N	1.4
CCCCC [pentane] + CCCCCCCCCCCCCC[P+](CCCCCC)(CCCCCC)CCCCCC.N#CC(=C=[N-])C#N	1.59
